Where do the numbers come from? From patent US4285941A.

Read-out record for Staphylococcus aureus 209-P: MIC
Please reply with the bare figure in µg/mL and do not write the unit itself.

Here is how some compounds turned out for MIC.
Cc1nnc(SCC2=C(C(=O)O)N3C(=O)[C@@H](NC(=O)[C@H](NC(=O)c4coc5cc(O)c(O)cc5c4=O)c4ccc(O)cc4)[C@H]3SC2)s1 1.56
CC(=O)Oc1cc2occ(C(=O)N[C@@H](C(=O)N[C@@H]3C(=O)N4C(C(=O)O)=C(CSc5nnnn5C)CS[C@H]34)c3ccccc3)c(=O)c2cc1OC(C)=O 1.56

Please find the next compound below.
Short answer on Staphylococcus aureus 209-P for "Cn1nnnc1SCC1=C(C(=O)O)N2C(=O)[C@@H](NC(=O)[C@H](NC(=O)c3coc4cc(O)c(O)cc4c3=O)c3ccccc3)[C@H]2SC1" , MIC: 1.56
